FYI, the data here is from PubChem BioAssay.

Target: Dihydroorotate dehydrogenase (quinone), mitochondrial (Plasmodium falciparum (isolate 3D7))
Experiment: inhibition of P. falciparum DHODH – biochemical, C-terminal His tag, absorbance 600 nm, primary screen (AID 1175);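 further: recombinant parasite enzyme with a five histidine tag at its C terminus; test concentration not given here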
Conditions: PfDHODH enzyme, DCIP absorbance 600 nm; higher = more signal, called active from +8 up or from −8 down
recorded endpoint: composite z-score

[[record]]
compound = "C[C@]1(C(=O)O)c2ccccc2C(=O)N(Cc2cc(F)cc(C(F)(F)F)c2)[C@H]1c1ccc(CO)cc1"
experimental_result = -0.215

[[record]]
compound = "CC(C)(C)OC(=O)CC[C@]1(C(=O)NCC(O)CO)N=C(c2ccc(OCCCO)cc2)O[C@H]1c1ccccc1N=[N+]=[N-] (some centres undefined)"
experimental_result = -0.955

[[record]]
compound = "CO[C@H]1O[C@H](CO)[C@@H](OC(=O)Nc2ccccc2)[C@H](OC(=O)Nc2ccccc2)[C@H]1OC(=O)Nc1ccccc1"
experimental_result = 1.02

[[record]]
compound = "CCOC(=O)C1=CCC(c2cc3ccccc3[nH]2)N(CCN2CC(C(=O)OCC)=CCC2c2cc3ccccc3[nH]2)C1 (centres undefined)"
experimental_result = 0.268

[[record]]
compound = "NC(=O)NCC#Cc1ccc2c(c1)[C@]1(C(=O)N2)[C@H](c2ccc(OCCO)cc2)N2[C@H](c3ccccc3)[C@H](c3ccccc3)OC(=O)[C@H]2[C@@H]1C(=O)NC[C@H](O)c1ccccc1"
experimental_result = -0.256

[[record]]
compound = "CCCCCC1=C2CNC(Cc3ccccc3)(C(=O)OC)C=C2C(C)C1=O (centres undefined)"
experimental_result = -0.461

[[record]]
compound = "CC(C)OC(=O)CC(=O)CC(O)c1cccc([N+](=O)[O-])c1 (centres undefined)"
experimental_result = -2.1

[[record]]
compound = "C=CC[C@@]1(C(=O)OC)N=C(c2ccc(OCCCO)cc2)O[C@@H]1c1ccccc1N=[N+]=[N-]"
experimental_result = 1.09

[[record]]
compound = "COC(=O)[C@@]1(Cc2ccccc2)[C@H]2c3cc(C(=O)N(C)C)n(CCSC(=N)N)c3C[C@H]2CN1C(=O)c1ccccc1"
experimental_result = 0.644

